target desc: Scl-70抗原 (人DNA拓扑异构酶I的C末端片段的70kD分子量蛋白) (human) (UniProt P11387)
experiment notes: chemiluminescence immunoassay on Scl-70-coated magnetic microspheres, ABEI-anti-human IgG; CHO supernatant diluted 30-fold
measurement label: 稀释30倍RLU (RLU)
The answer is to be given in RLU; state only the numeric part.

抗体4 (实施例14) (antibody, human IgG1, kappa, V domains shown) VH: EVKLVESGGGLVQPGGSRKLSCAASGFTFSSYWMHWVRQAPEKGLEWVAYISSGGITIYYADTVKGRFTISRDNPENTLFLQMTSLTSEDTAIYYCARRAAYGNYDWYFDVWGAGTTVTVSS VL: NIVMTQSPSSLVVSAGEKVTLSCKSSQSLLYSSNQKNYLAWFQQKPGQSPKLLIYWASTRESGVPDRFTGSGSRTDFTLTISSVQAEDMAVYYCHQYIYLWSFGGGSKLEIER | 609000
抗体5 (实施例15) (antibody, human IgG1, kappa, V domains shown) VH: EIQLVQSGSEVVRTGTSVKLSCKASGYRFTSYWMHWVKQRPGQGLEWIGNINPGDGRTNYDENFKNKATLTVDPSSNTAYMQLNSLTSEDSAVYYCTRDGNYGIFDYWGRGTSVTVSS VL: DIELTQSPSSLVVSAGEKVTLSCKSSQSLLYSSNQKNYLAWFQQKPGQSPKLLIYWASTRGSGVPDRFTGSGSRTDFTLTISSVQAEDMAVYYCHQYIYLWSFGGGTKLEIKR | 421000
抗体1 (实施例11; 2D6抗体) (antibody, human IgG1, kappa, V domains shown) VH: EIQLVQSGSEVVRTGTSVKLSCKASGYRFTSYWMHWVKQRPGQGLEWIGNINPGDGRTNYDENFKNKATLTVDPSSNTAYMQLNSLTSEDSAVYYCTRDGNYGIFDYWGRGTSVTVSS VL: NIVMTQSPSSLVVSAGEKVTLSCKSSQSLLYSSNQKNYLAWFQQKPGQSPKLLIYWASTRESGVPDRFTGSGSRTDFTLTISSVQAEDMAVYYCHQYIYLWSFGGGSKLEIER | 355000

# input for lookup
// 稀释30倍RLU value for 抗体6 (实施例16) (antibody, human IgG1, kappa, V domains shown) VH: EVKLVESGGGLVQPGGSRKLSCAASGFTFSSYWMHWVRQAPEKGLEWVANINPGDGRTNYDENFKNRFTISRDNPENTLFLQMTSLTSEDTAIYYCARRAAYGNYDWYFDVWGAGTTVTVSS VL: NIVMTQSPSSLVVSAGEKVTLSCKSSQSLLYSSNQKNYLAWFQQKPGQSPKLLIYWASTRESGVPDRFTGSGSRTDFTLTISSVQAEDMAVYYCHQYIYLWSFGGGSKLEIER : 329000
